Data origin: patent US12162850B2

test: Single dose oral pharmacokinetic studies in rabbits; assay type: in vivo, male New Zealand White rabbits; settings: male, New Zealand White, rabbit, plasma, po, 53 mg/kg, enteric coated capsule with MgO, 53 mg/kg b.w. (equivalent to 50 mg/kg Compound 1) oral single dose, rabbit plasma (Example 11)
value-kind: AUC(0-t) (µg·h/mL)

smiles_str=O=C(Nc1nc(=O)n(Cc2ccc(Cl)cc2)s1)c1ccc(Cl)cc1.[Na] value_kind=AUC(0-t) data_value=8930

---

Experiment: Single dose oral pharmacokinetic studies in rabbits
Assay type: in vivo, male New Zealand White rabbits
Conditions: male, New Zealand White, rabbit, plasma, po, 25 mg/kg, enteric coated capsule with mannitol, 25 mg/kg b.w. oral single dose, rabbit plasma (Example 10)
Description: The studies detailed below (and referred to as Examples 2 to 8) were conducted to provide comparative single dose oral pharmacokinetics data for Compound 1, as well as sodium and potassium salts of that compound, using non-coated and enteric-coated capsules in male New Zealand White rabbits. […] Concentrations of the analyte of Compound 1 in New Zealand white rabbits was determined using an API 3200 Q-trap LC-MS/MS system. […]
value-kind: Cmax (ng/mL)

compound="O=C(Nc1nc(=O)n(Cc2ccc(Cl)cc2)s1)c1ccc(Cl)cc1.[Na] [Compound 2]" units_symbol=ng/mL data_value=47400

---

assay: Single dose oral pharmacokinetic studies in rabbits; type: in vivo, male New Zealand White rabbits; conditions: male, New Zealand White, rabbit, plasma, po, 90 mg/kg, enteric coated capsule, 90 mg/kg b.w. oral single dose, rabbit plasma (Examples 5, 6, 7)
value-kind: AUC(0-inf)

smiles_str=O=C(Nc1nc(=O)n(Cc2ccc(Cl)cc2)s1)c1ccc(Cl)cc1.[K] data_value="18600 µg·h/mL"
smiles_str=O=C(Nc1nc(=O)n(Cc2ccc(Cl)cc2)s1)c1ccc(Cl)cc1 data_value="18600 µg·h/mL"
smiles_str=O=C(Nc1nc(=O)n(Cc2ccc(Cl)cc2)s1)c1ccc(Cl)cc1.[Na] data_value="55700 µg·h/mL"

---

assay: Single dose oral pharmacokinetic studies in rabbits; format: in vivo, male New Zealand White rabbits; settings: male, New Zealand White, rabbit, plasma, po, 90 mg/kg, 0.25 h; enteric coated capsule, 90 mg/kg b.w. oral
value-kind: concentration at 0.25 h (ng/mL)

smiles_str=O=C(Nc1nc(=O)n(Cc2ccc(Cl)cc2)s1)c1ccc(Cl)cc1 units_symbol=ng/mL data_value=0

---

experiment: Single dose oral pharmacokinetic studies in rabbits; type: in vivo, male New Zealand White rabbits; settings: male, New Zealand White, rabbit, plasma, po, 90 mg/kg, non-coated capsule, 90 mg/kg b.w. oral single dose, rabbit plasma (Examples 2, 3, 4)
value-kind: AUC(0-inf) (µg·h/mL)

smiles_str=O=C(Nc1nc(=O)n(Cc2ccc(Cl)cc2)s1)c1ccc(Cl)cc1.[K] data_value=9370
smiles_str=O=C(Nc1nc(=O)n(Cc2ccc(Cl)cc2)s1)c1ccc(Cl)cc1.[Na] data_value=38100
smiles_str=O=C(Nc1nc(=O)n(Cc2ccc(Cl)cc2)s1)c1ccc(Cl)cc1 data_value=7390

---

experiment: Single dose oral pharmacokinetic studies in rabbits; assay type: in vivo, male New Zealand White rabbits; settings: male, New Zealand White, rabbit, plasma, po, 90 mg/kg, enteric coated capsule, 90 mg/kg b.w. oral single dose, rabbit plasma (Examples 5, 6, 7)
value-kind: Tmax

smiles_str=O=C(Nc1nc(=O)n(Cc2ccc(Cl)cc2)s1)c1ccc(Cl)cc1 data_value="40 h"
smiles_str=O=C(Nc1nc(=O)n(Cc2ccc(Cl)cc2)s1)c1ccc(Cl)cc1.[K] data_value="48 h"
smiles_str=O=C(Nc1nc(=O)n(Cc2ccc(Cl)cc2)s1)c1ccc(Cl)cc1.[Na] data_value="32 h"

---

test: Single dose oral pharmacokinetic studies in rabbits; assay type: in vivo, male New Zealand White rabbits; conditions: male, New Zealand White, rabbit, plasma, po, 90 mg/kg, 4.00 h; non-coated capsule, 90 mg/kg b.w. oral
value-kind: concentration at 4 h (ng/mL)

compound="O=C(Nc1nc(=O)n(Cc2ccc(Cl)cc2)s1)c1ccc(Cl)cc1 [Compound 1]" units_symbol=ng/mL data_value=13400

---

assay: Single dose oral pharmacokinetic studies in rabbits; format: in vivo, male New Zealand White rabbits; conditions: male, New Zealand White, rabbit, plasma, po, 53 mg/kg, enteric coated capsule with MgO, 53 mg/kg b.w. (equivalent to 50 mg/kg Compound 1) oral single dose, rabbit plasma (Example 11)
value-kind: MRT last (h)

smiles_str=O=C(Nc1nc(=O)n(Cc2ccc(Cl)cc2)s1)c1ccc(Cl)cc1.[Na] value_kind="MRT last" units_symbol=h data_value=40.9

---

Assay: Single dose oral pharmacokinetic studies in rabbits
Assay type: in vivo, male New Zealand White rabbits
Conditions: male, New Zealand White, rabbit, plasma, po, 90 mg/kg, 0.50 h; enteric coated capsule, 90 mg/kg b.w. oral
Description: The studies detailed below (and referred to as Examples 2 to 8) were conducted to provide comparative single dose oral pharmacokinetics data for Compound 1, as well as sodium and potassium salts of that compound, using non-coated and enteric-coated capsules in male New Zealand White rabbits. […] Concentrations of the analyte of Compound 1 in New Zealand white rabbits was determined using an API 3200 Q-trap LC-MS/MS system. […]
value-kind: concentration at 0.5 h (ng/mL)

compound="O=C(Nc1nc(=O)n(Cc2ccc(Cl)cc2)s1)c1ccc(Cl)cc1 [Compound 1]" data_value=0

---

Here, each record is paired with measured half-life data.
test: Single dose oral pharmacokinetic studies in rabbits; assay type: in vivo, male New Zealand White rabbits; conditions: male, New Zealand White, rabbit, plasma, po, 90 mg/kg, enteric coated capsule, 90 mg/kg b.w. oral single dose, rabbit plasma (Examples 5, 6, 7)
value-kind: half-life (days)

smiles_str=O=C(Nc1nc(=O)n(Cc2ccc(Cl)cc2)s1)c1ccc(Cl)cc1.[K] value_kind=half-life data_value=7.86
smiles_str=O=C(Nc1nc(=O)n(Cc2ccc(Cl)cc2)s1)c1ccc(Cl)cc1.[Na] value_kind=half-life data_value=15.3
smiles_str=O=C(Nc1nc(=O)n(Cc2ccc(Cl)cc2)s1)c1ccc(Cl)cc1 value_kind=half-life data_value=10.5

---

assay: Single dose oral pharmacokinetic studies in rabbits; format: in vivo, male New Zealand White rabbits; conditions: male, New Zealand White, rabbit, plasma, po, 90 mg/kg, 4.00 h; standard suspension, 90 mg/kg b.w. oral
value-kind: concentration at 4 h (ng/mL)

smiles_str=O=C(Nc1nc(=O)n(Cc2ccc(Cl)cc2)s1)c1ccc(Cl)cc1 data_value=11600

---

test: Single dose oral pharmacokinetic studies in rabbits; assay type: in vivo; conditions: male, New Zealand White, rabbit, plasma, 53 mg/kg, enteric coated capsule with MgO, 53 mg/kg b.w. (equivalent to 50 mg/kg Compound 1) oral single dose, rabbit plasma (Example 11)
value-kind: Tmax (h)

smiles_str=O=C(Nc1nc(=O)n(Cc2ccc(Cl)cc2)s1)c1ccc(Cl)cc1.[Na] value_kind=Tmax data_value=48

---

assay: Single dose oral pharmacokinetic studies in rabbits; format: in vivo, male New Zealand White rabbits; conditions: male, New Zealand White, rabbit, plasma, po, 25 mg/kg, enteric coated capsule with mannitol, 25 mg/kg b.w. oral single dose, rabbit plasma (Example 10)
value-kind: MRT last (h)

compound="O=C(Nc1nc(=O)n(Cc2ccc(Cl)cc2)s1)c1ccc(Cl)cc1.[Na] [Compound 2]" value_kind="MRT last" data_value=30

---

experiment: Single dose oral pharmacokinetic studies in rabbits; type: in vivo, male New Zealand White rabbits; details: male, New Zealand White, rabbit, plasma, po, 90 mg/kg, enteric coated capsule, 90 mg/kg b.w. oral single dose, rabbit plasma (Examples 5, 6, 7)
value-kind: Cmax

smiles_str=O=C(Nc1nc(=O)n(Cc2ccc(Cl)cc2)s1)c1ccc(Cl)cc1 data_value="60.8 µg/mL"
smiles_str=O=C(Nc1nc(=O)n(Cc2ccc(Cl)cc2)s1)c1ccc(Cl)cc1.[Na] data_value="101 µg/mL"
smiles_str=O=C(Nc1nc(=O)n(Cc2ccc(Cl)cc2)s1)c1ccc(Cl)cc1.[K] data_value="79.5 µg/mL"

---

test: Single dose oral pharmacokinetic studies in rabbits; format: in vivo, male New Zealand White rabbits; conditions: male, New Zealand White, rabbit, plasma, po, 90 mg/kg, standard suspension (2% w/v methylcellulose), 90 mg/kg b.w. oral single dose, rabbit plasma (Example 8)
value-kind: AUC(0-inf) (µg·h/mL)

compound="O=C(Nc1nc(=O)n(Cc2ccc(Cl)cc2)s1)c1ccc(Cl)cc1 [Compound 1]" value_kind=AUC(0-inf) data_value=1120
